Hey, just so you know, these numbers are from patent US10538555B2.

# ASSAYED_TARGET: Human PD-L1/PD-1 (Homo sapiens, UniProt Q9NZQ7)
# Construct: TVMV protease cleavage site (C); made in house; host or cells: HEK293T cells
# Sequence (Q9NZQ7 with tags, fused parts or gaps): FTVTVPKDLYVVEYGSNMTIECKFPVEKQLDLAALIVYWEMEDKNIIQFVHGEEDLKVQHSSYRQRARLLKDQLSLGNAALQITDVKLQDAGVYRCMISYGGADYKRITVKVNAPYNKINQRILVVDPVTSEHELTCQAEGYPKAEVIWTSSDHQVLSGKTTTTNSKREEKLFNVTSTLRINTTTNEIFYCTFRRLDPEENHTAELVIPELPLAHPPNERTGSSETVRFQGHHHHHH
# METHOD_NOTES: HTRF Human PD-L1/PD-1 binding assay (PD-1-Ig/PD-L1-His)
# RUN_CONDITIONS: PD-L1-His 10 nM, PD-1-Ig 20 nM; class symbol; read-out: HTRF Human PD-L1/PD-1 Binding Assay IC50 Range
Where a SMILES comes first, the peptide text is derived from it. Bridges are numbered along the chain shown (N, C = ends). [ ]: non-standard residue; d: D form. NMe3Pal = CN[C@@H](Cc1cccnc1)C(=O)O; NMeF = CN[C@@H](Cc1ccccc1)C(=O)O; NMeNle = CCCC[C@H](NC)C(=O)O; Orn = NCCC[C@H](N)C(=O)O; Sar = CNCC(=O)O
Listed compounds paired with reported IC50

CCCC[C@H]1C(=O)N(C)[C@@H](CCCC)C(=O)N[C@@H](C)C(=O)N[C@H](C(=O)NCC(N)=O)CSCC(=O)NC(Cc2ccc(O)cc2)C(=O)N2CCCC[C@H]2C(=O)N[C@@H](CC(N)=O)C(=O)N2CCC[C@H]2C(=O)N[C@@H](Cc2c[nH]cn2)C(=O)N[C@@H](CC(C)C)C(=O)N2C[C@H](O)C[C@H]2C(=O)N[C@@H](Cc2c[nH]c3ccccc23)C(=O)N[C@@H](CO)C(=O)N[C@@H](Cc2c[nH]c3ccccc23)C(=O)N1C (some centres unmarked) [Example 1251] = 1 to 9.9 nM

# compound CCCC[C@H]1C(=O)N(C)CC(=O)N[C@@H](CC(N)=O)C(=O)N[C@@H](C(C)C)C(=O)N(C)[C@@H](Cc2ccccc2)C(=O)N[C@@H](Cc2ccc(O)cc2)C(=O)N(C)CC(=O)N[C@@H](Cc2c[nH]c3ccccc23)C(=O)N[C@@H](Cc2ccc(O)cc2)C(=O)N[C@@H](CCCN)C(=O)N[C@H](C(=O)NCC(N)=O)CSCC(=O)N[C@@H](Cc2ccccc2)C(=O)N(C)[C@@H](Cc2cccnc2)C(=O)N1C [Example 3614] ({CH2CO}-F[NMe3Pal][NMeNle][Sar]NV[NMeF]Y[Sar]WY[Orn]CG-NH2; thioether N-13) ; its IC50 = 10 to 99.9 nM

* * *

# ASSAYED_TARGET: Human PD-L1/PD-1 (Homo sapiens, UniProt Q9NZQ7)
# Construct: TVMV protease cleavage site (C); made in house; host or cells: HEK293T cells
# METHOD_NOTES: HTRF Human PD-L1/PD-1 binding assay (PD-1-Ig/PD-L1-His)
# RUN_CONDITIONS: PD-L1-His 10 nM, PD-1-Ig 20 nM; class symbol; read-out: HTRF Human PD-L1/PD-1 Binding Assay IC50 Range
Where a SMILES comes first, the peptide text is derived from it. Bridges are numbered along the chain shown (N, C = ends). [ ]: non-standard residue; d: D form. Bta = N[C@@H](Cc1csc2ccccc12)C(=O)O; Hyp = O=C(O)[C@@H]1C[C@@H](O)CN1; NMeF = CN[C@@H](Cc1ccccc1)C(=O)O; NMeNle = CCCC[C@H](NC)C(=O)O; Pip = O=C(O)[C@@H]1CCCCN1; Sar = CNCC(=O)O
Listed compounds paired with reported IC50

CCCC[C@H]1C(=O)N(C)[C@@H](CCCC)C(=O)N[C@@H](CC(=O)O)C(=O)N[C@H](C(=O)NCC(N)=O)CSCC(=O)N[C@@H](Cc2ccc(O)cc2)C(=O)N2CCCC[C@H]2C(=O)N[C@@H](CC(=O)O)C(=O)N2CCC[C@H]2C(=O)N[C@@H](Cc2cnc[nH]2)C(=O)N[C@@H](CCCCN)C(=O)N2C[C@H](O)C[C@H]2C(=O)N[C@@H](Cc2c[nH]c3ccccc23)C(=O)N[C@@H](CCCCN)C(=O)N[C@@H](Cc2c[nH]c3ccccc23)C(=O)N1C [Example 1259] ({CH2CO}-Y[Pip]DPHK[Hyp]WKW[NMeNle][NMeNle]DCG-NH2; thioether N-14) = 1 to 9.9 nM

Next up:
# compound CCCC[C@H]1C(=O)N2CCC[C@@H]2C(=O)N[C@@H](CO)C(=O)N[C@@H](C(C)C)C(=O)N(C)[C@@H](Cc2ccccc2)C(=O)N[C@@H](Cc2ccc(O)cc2)C(=O)N(C)CC(=O)N[C@@H](Cc2csc3ccccc23)C(=O)N[C@@H](Cc2ccc(O)cc2)C(=O)N[C@@H](CC(C)C)C(=O)N[C@H](C(=O)NCC(N)=O)CSCC(=O)N[C@@H](Cc2ccccc2)C(=O)N(C)[C@@H](Cc2ccccc2)C(=O)N1C [Example 10063] ({CH2CO}-F[NMeF][NMeNle][dP]SV[NMeF]Y[Sar][Bta]YLCG-NH2; thioether N-13) ; its IC50 = 10 to 99.9 nM

* * *

# ASSAYED_TARGET: Human PD-L1/PD-1 (Homo sapiens, UniProt Q9NZQ7)
# Construct: TVMV protease cleavage site (C); made in house; host or cells: HEK293T cells
# METHOD_NOTES: HTRF Human PD-L1/PD-1 binding assay (PD-1-Ig/PD-L1-His)
# RUN_CONDITIONS: PD-L1-His 10 nM, PD-1-Ig 20 nM; read-out: HTRF Human PD-L1/PD-1 Binding Assay IC50
Where a SMILES comes first, the peptide text is derived from it. Bridges are numbered along the chain shown (N, C = ends). [ ]: non-standard residue; d: D form. ξ: configuration not given here. NMeF = CN[C@@H](Cc1ccccc1)C(=O)O; NMeNle = CCCC[C@H](NC)C(=O)O; dPip = O=C(O)[C@H]1CCCCN1; NMeA = CN[C@@H](C)C(=O)O; ξC = NC(CS)C(=O)O; Sar = CNCC(=O)O
Listed compounds paired with reported pIC50
Scale: pIC50 equals -log10([C]), with [C] in mol/L.

CCCC[C@H]1C(=O)N(C)CC(=O)N[C@@H](CO)C(=O)N[C@@H](C)C(=O)N(C)[C@@H](Cc2ccccc2)C(=O)N[C@@H](Cc2ccc(O)cc2)C(=O)N2CCCC[C@@H]2C(=O)N[C@@H](Cc2c[nH]c3ccccc23)C(=O)N[C@@H](Cc2ccc(O)cc2)C(=O)N[C@@H](CC(C)C)C(=O)N[C@H](C(=O)NCC(N)=O)CSCC(=O)N[C@@H](Cc2ccccc2)C(=O)N(C)[C@@H](Cc2ccccc2)C(=O)N1C [Example 10057] ({CH2CO}-F[NMeF][NMeNle][Sar]SA[NMeF]Y[dPip]WYLCG-NH2; thioether N-13) = 6.67

# compound CCCC[C@H]1C(=O)N(C)[C@@H](CCCC)C(=O)N[C@@H](CCCNC(=N)N)C(=O)NC(C(=O)NCC(N)=O)CSCC(=O)N[C@@H](Cc2ccc(O)cc2)C(=O)N(C)[C@@H](C)C(=O)N[C@@H](CC(N)=O)C(=O)N2CCC[C@H]2C(=O)N[C@@H](CC(N)=O)C(=O)N[C@@H](CC(N)=O)C(=O)N2CCC[C@H]2C(=O)N[C@@H](Cc2c[nH]c3ccccc23)C(=O)N[C@@H](CO)C(=O)N[C@@H](Cc2c[nH]c3ccccc23)C(=O)N1C (some centres unmarked) [Example 10013] ({CH2CO}-Y[NMeA]NPNNPWSW[NMeNle][NMeNle]R[ξC]G-NH2; thioether N-14) ; its pIC50 = 7.20

* * *

# ASSAYED_TARGET: Human PD-L1/PD-1 (Homo sapiens, UniProt Q9NZQ7)
# Construct: TVMV protease cleavage site (C); made in house; host or cells: HEK293T cells
# METHOD_NOTES: HTRF Human PD-L1/PD-1 binding assay (PD-1-Ig/PD-L1-His)
# RUN_CONDITIONS: PD-L1-His 10 nM, PD-1-Ig 20 nM; class symbol; read-out: HTRF Human PD-L1/PD-1 Binding Assay IC50 Range
Where a SMILES comes first, the peptide text is derived from it. Bridges are numbered along the chain shown (N, C = ends). [ ]: non-standard residue; d: D form. ξ: configuration not given here. Bta = N[C@@H](Cc1csc2ccccc12)C(=O)O; NMeNle = CCCC[C@H](NC)C(=O)O; NMeA = CN[C@@H](C)C(=O)O; Dab = NCC[C@H](N)C(=O)O; ξC = NC(CS)C(=O)O
READOUT_NAME: IC50

# compound CCCC[C@H]1C(=O)N(C)[C@@H](CCCC)C(=O)N[C@@H](CCN)C(=O)NC(C(=O)NCC(N)=O)CSCC(=O)N[C@@H](Cc2ccc(O)cc2)C(=O)N(C)[C@@H](C)C(=O)N[C@@H](CC(N)=O)C(=O)N2CCC[C@H]2C(=O)N[C@@H](CC(N)=O)C(=O)N[C@@H](CC(C)C)C(=O)N2CCC[C@H]2C(=O)N[C@@H](Cc2csc3ccccc23)C(=O)N[C@@H](CO)C(=O)N[C@@H](Cc2c[nH]c3ccccc23)C(=O)N1C (stereo partly shown) [Example 9163] ({CH2CO}-Y[NMeA]NPNLP[Bta]SW[NMeNle][NMeNle][Dab][ξC]G-NH2; thioether N-14) ; its IC50 = 1 to 9.9 nM
